assay: Partition coefficient of compound; assay type: physicochemical; conditions: octanol/water
PARAMETER_MEASURED: logP

A selection of reference data follows.
structure_string=COc1ccc(CNC(=O)C(=O)c2c[nH]c3ccc([N+](=O)[O-])cc23)cc1 measurement=2.17
structure_string=O=C(NCc1ccc(O)cc1)C(=O)c1c[nH]c2ccc([N+](=O)[O-])cc12 measurement=2.67

Exercise: logP for O=C(NCc1ccc(F)cc1)C(=O)c1c[nH]c2ccccc12 ?
Key: 2.88

###

molecular target: GABA-A receptor; anion channel (Bos taurus) (UniProt P10063+P08220+P20237+P08219+P10064+P22300); assay: Gamma AminoButyric Acid(GABA) ratio is the Ki without GABA / Ki with GABA; type: protein-complex assay
PARAMETER_MEASURED: GABA ratio
Please respond with just the number, no unit label.

structure_string=COc1cccc(CNC(=O)C(=O)c2c[nH]c3ccc([N+](=O)[O-])cc23)c1 measurement=0.91
structure_string=O=C(NCc1cccc(O)c1)C(=O)c1c[nH]c2ccc(Cl)cc12 measurement=1.45
structure_string=COc1cc(CNC(=O)C(=O)c2c[nH]c3ccc(Cl)cc23)ccc1O measurement=1.03
structure_string=O=C(NCc1cccc(O)c1)C(=O)c1c[nH]c2ccccc12 measurement=1.25
structure_string=O=C(NCc1cccc(O)c1)C(=O)c1c[nH]c2ccc([N+](=O)[O-])cc12 measurement=1.32

Exercise: Param item = O=C(NCc1ccc(O)cc1)C(=O)c1c[nH]c2ccc(Cl)cc12 ; retrieve measured GABA ratio.
Key: 1.1

Exercise: Quick check: GABA ratio of COc1ccc(CNC(=O)C(=O)c2c[nH]c3ccc(Cl)cc23)cc1 ?
Key: 1

Exercise: // GABA ratio lookup, key: O=C(NCc1ccc(F)cc1)C(=O)c1c[nH]c2ccccc12
Key: 1.16

Exercise: // returns reported GABA ratio for input O=C(NCc1ccc(O)c(O)c1)C(=O)c1c[nH]c2ccc([N+](=O)[O-])cc12
Key: 1.35

Exercise: Item under review: Cn1cc(C(=O)C(=O)NCc2ccc(Cl)cc2)c2ccccc21 . Reported GABA ratio?
Key: 1

###

molecular target: GABA-A receptor; anion channel (Bos taurus) (UniProt P10063+P08220+P20237+P08219+P10064+P22300); assay: In vitro inhibition of [3H]- flunitrazepam binding to GABA-A central benzodiazepine receptor of bovine cortical membranes at 10 uM
Kind request: treat 90% as inclusive, so inhibition at 90% or higher is Yes, anything lower is No.

Example cases with answers are listed next.
structure_string=O=C(NCc1ccccc1Cl)C(=O)c1c[nH]c2ccc(Cl)cc12 qualitative_label=No
structure_string=O=C(NCc1ccc(Cl)cc1)C(=O)c1c[nH]c2ccc(Cl)cc12 qualitative_label=No
structure_string=O=C(NCCCc1ccccc1)C(=O)c1c[nH]c2ccccc12 qualitative_label=No

Exercise: Check if inhibition >= 90% (inclusive). Item: COc1cccc(CNC(=O)C(=O)c2c[nH]c3ccccc23)c1
Key: Yes

Exercise: Does the molecule COc1cccc(CNC(=O)C(=O)c2c[nH]c3ccc([N+](=O)[O-])cc23)c1 have recorded inhibition that is 90% or more?
Key: No

Exercise: Reported inhibition reaches at least 90% for O=C(NCc1ccc(O)c(O)c1)C(=O)c1c[nH]c2ccc(Cl)cc12 ?
Key: Yes

Exercise: For this molecule, is measured inhibition 90% or higher? O=C(NCc1ccccc1Cl)C(=O)c1c[nH]c2ccccc12
Key: No

Exercise: I'd appreciate it if you could say whether O=C(NCc1ccc(F)cc1)C(=O)c1c[nH]c2ccccc12 has inhibition at least equal to 90%.
Key: Yes

Exercise: Does the reported inhibition for O=C(NCc1ccc(F)cc1)C(=O)c1c[nH]c2ccc([N+](=O)[O-])cc12 fall at or above the 90% mark?
Key: No

###

biological target: GABA-A receptor; anion channel (Bos taurus) (UniProt P10063+P08220+P20237+P08219+P10064+P22300); assay: Specific [35S]- TBPS binding at high affinity site loated near chloride channel of GABA-A receptor chloride complex; format: protein-complex assay; parameters: concentration or dose not given beside the values
PARAMETER_MEASURED: Activity (%)
Lab book: enter the figure in %, no units written.

structure_string=O=C1CN=C(c2ccccc2Cl)c2cc([N+](=O)[O-])ccc2N1 measurement=100
structure_string=O=C(NCc1ccc(O)c(O)c1)C(=O)c1c[nH]c2ccc([N+](=O)[O-])cc12 measurement=52
structure_string=COc1cc(CNC(=O)C(=O)c2c[nH]c3ccc([N+](=O)[O-])cc23)ccc1O measurement=27
structure_string=COc1ccc(CNC(=O)C(=O)c2c[nH]c3ccc([N+](=O)[O-])cc23)cc1 measurement=2
structure_string=COc1cccc(CNC(=O)C(=O)c2c[nH]c3ccc([N+](=O)[O-])cc23)c1 measurement=10

Exercise: // lookup Activity for COc1ccc(CNC(=O)C(=O)c2c[nH]c3ccc([N+](=O)[O-])cc23)cc1OC
Key: 31

Exercise: Endpoint output: Activity of CCOC(=O)c1ncn2c1CN(C)C(=O)c1cc(F)ccc1-2 . Value?
Key: 15

Exercise: Would you mind telling me what Activity value was observed for O=C(NCc1ccc(F)cc1)C(=O)c1c[nH]c2ccccc12 ?
Key: 21

Exercise: So what does the record say about Activity for O=C(NCc1cccc(O)c1)C(=O)c1c[nH]c2ccc([N+](=O)[O-])cc12 ?
Key: 50

Exercise: Look at this compound and give its reported Activity. O=C(NCc1ccccc1)C(=O)c1c[nH]c2ccccc12
Key: 29

Exercise: For the compound O=C(NCc1ccc(Cl)cc1)C(=O)c1c[nH]c2ccccc12 , what Activity is on record?
Key: 27

###

target: GABA-A receptor; anion channel (Bos taurus) (UniProt P10063+P08220+P20237+P08219+P10064+P22300); assay: Gamma AminoButyric Acid(GABA) ratio is the Ki without GABA / Ki with GABA; type: protein-complex assay
Reported GABA ratio maps to class as: label 0 (below 0.9), label 1 (0.9 to below 1), label 2 (1 or more)

A selection of reference data follows.
structure_string=O=C(NCc1cccc(Cl)c1)C(=O)c1c[nH]c2ccccc12 qualitative_label="label 1"
structure_string=COc1ccc(CNC(=O)C(=O)c2c[nH]c3ccccc23)cc1OC qualitative_label="label 0"
structure_string=O=C(NCc1ccc(O)cc1)C(=O)c1c[nH]c2ccccc12 qualitative_label="label 2"
structure_string=O=C(NCc1ccc(Cl)cc1)C(=O)c1c[nH]c2ccccc12 qualitative_label="label 2"
structure_string=O=C(NCc1ccccc1Cl)C(=O)c1c[nH]c2ccccc12 qualitative_label="label 1"

Exercise: Lab log: COc1cc(CNC(=O)C(=O)c2c[nH]c3ccc([N+](=O)[O-])cc23)ccc1O — assign GABA ratio category
Key: label 2

Exercise: Form: Item = O=C(NCc1ccccc1F)C(=O)c1c[nH]c2ccccc12 ; Class = ?
Key: label 0

###

molecular target: GABA-A receptor; anion channel (Bos taurus) (UniProt P10063+P08220+P20237+P08219+P10064+P22300); experiment: Inhibition of [3H]- flunitrazepam binding to GABA-A central benzodiazepine receptor of bovine cortical membranes at 10 uM
PARAMETER_MEASURED: inhibition (%)
The reply should be a number in %, with the unit left off.

Please review the entries below; each comes with its answer.
structure_string=COc1ccc(CNC(=O)C(=O)c2c[nH]c3ccc(Cl)cc23)cc1 parameter_measured=inhibition units_symbol=% measurement=81
structure_string=O=C(NCc1ccccc1)C(=O)c1c[nH]c2ccc([N+](=O)[O-])cc12 parameter_measured=inhibition units_symbol=% measurement=55
structure_string=O=C(NCc1ccccc1)C(=O)c1c[nH]c2ccccc12 parameter_measured=inhibition units_symbol=% measurement=98
structure_string=O=C(Nc1ccc(O)cc1)C(=O)c1c[nH]c2ccc(Cl)cc12 parameter_measured=inhibition units_symbol=% measurement=23
structure_string=O=C(Nc1ccccc1)C(=O)c1c[nH]c2ccc([N+](=O)[O-])cc12 parameter_measured=inhibition units_symbol=% measurement=0

# next molecule below
Exercise: Which inhibition reading was recorded for the molecule O=C(Nc1ccc(O)cc1)C(=O)c1c[nH]c2ccc([N+](=O)[O-])cc12 ?
Key: 76

###

target: GABA-A receptor; anion channel; experiment: In vitro inhibition of [3H]- flunitrazepam binding to GABA-A benzodiazepine receptor of bovine cortical membranes
PARAMETER_MEASURED: Ki (nM)
Please respond with the number in nM and leave the unit unwritten.

Exercise: Item under review: COc1cccc(CNC(=O)C(=O)c2c[nH]c3ccc(Cl)cc23)c1 . Reported Ki?
Key: 162

Exercise: Look up Ki: COc1ccc(CNC(=O)C(=O)c2cn(C)c3ccccc23)cc1OC
Key: 2700

Exercise: Return reported Ki; argument: COc1ccc(CNC(=O)C(=O)c2c[nH]c3ccc([N+](=O)[O-])cc23)cc1
Key: 53

Exercise: Quick check: Ki of O=C(NCc1cccc(Cl)c1)C(=O)c1c[nH]c2ccccc12 ?
Key: 160

Exercise: Report Ki for O=C(NCc1ccccc1Cl)C(=O)c1c[nH]c2ccccc12 please.
Key: 2600

Exercise: Suppose we examine the molecule O=C(NCc1ccccc1F)C(=O)c1c[nH]c2ccccc12 ; what Ki value has been reported?
Key: 660

Exercise: Quick check: Ki of O=C(NCc1ccc(Cl)cc1)C(=O)c1c[nH]c2ccccc12 ?
Key: 67

Exercise: Looking for the measured Ki of O=C(NCc1ccc(O)cc1)C(=O)c1c[nH]c2ccccc12 , can you help?
Key: 430

Exercise: # lookup: Ki of COc1cccc(CNC(=O)C(=O)c2c[nH]c3ccc([N+](=O)[O-])cc23)c1
Key: 38

Exercise: # lookup: Ki of O=C(NCc1ccc(O)cc1)C(=O)c1c[nH]c2ccc(Cl)cc12
Key: 150

Exercise: Ki lookup needed for O=C(NCc1cccc(O)c1)C(=O)c1c[nH]c2ccccc12 , thanks.
Key: 820
